Where do the numbers come from? From PubChem BioAssay AID1919000.

viability, T/C values for the compounds below.
tested on: 653999-131-R-J2-PDC complex spheroids, growth % test/control; test: Anticancer human tumor 653999-131-R-J2-PDC patient-derived lung adenocarcinoma cell line growth inhibition [AhR]; details: second compound 1 µM; first compound 0.1 µM; active compounds read low;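 further: spheroids exposed to agents for seven days; 100% = DMSO vehicle control viability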
Express your answer in %, writing the number without its unit.

Before answering, review these 5 worked examples.
compound="Nc1ccn(C2OC(CO)C(O)C2(F)F)c(=O)n1 (stereo unspecified) + CC(CO)NC(=O)c1cc(-c2ccc(Cl)cc2)nn(-c2cnn(C)c2)c1=O" meas_value=69.9
compound="CC1(C)CCC(CN2CCN(c3ccc(C(=O)NS(=O)(=O)c4ccc(NCC5CCOCC5)c([N+](=O)[O-])c4)c(Oc4cnc5[nH]ccc5c4)c3)CC2)=C(c2ccc(Cl)cc2)C1 + Cc1ccccc1N=Nc1ccc(NC(=O)c2ccnn2C)c(C)c1" meas_value=93.1
compound="COc1cccc2c1C(=O)c1c(O)c3c(c(O)c1C2=O)CC(O)(C(=O)CO)CC3OC1CC(N)C(O)C(C)O1 (stereo unspecified) + Cc1cncc(-c2nc(NCCc3c[nH]c4ccccc34)c3ncn(C(C)C)c3n2)c1" meas_value=44.9
compound="CC(C)c1c(-c2ccccc2)nc2c(C#N)c[nH]n2c1=O + CC(CO)NC(=O)c1cc(-c2ccc(Cl)cc2)nn(-c2cnn(C)c2)c1=O" meas_value=106
compound="Nc1ncn(C2CC(O)C(CO)O2)c(=O)n1 (stereo unspecified) + Cc1ccccc1N=Nc1ccc(NC(=O)c2ccnn2C)c(C)c1" meas_value=93.3

Moving on to the next compound.
Asked: What does the record list as viability, T/C for NS(=O)(=O)OCC1CC(n2ccc3c(NC4CCc5ccccc54)ncnc32)CC1O (stereo unspecified) + CC(CO)NC(=O)c1cc(-c2ccc(Cl)cc2)nn(-c2cnn(C)c2)c1=O ?
Given back: 111
